Hey, just so you know, these numbers are from ChEMBL document CHEMBL1157539.

system: HepG2; assay: GSK_TCMDC: Percent inhibition of human HepG2 cell line. Test compounds present at 10uM.; assay type: functional
QUANTITY_NAME: Inhibition (%)
Field: numeric (%). Do not append units.

Take a look at these entries with their results.
1. COc1ccc(CCN(C)CCOc2ccc(NC(=O)COc3ccc4sc5ccccc5c(=O)c4c3)cc2)cc1OC; 99
2. CN(C)CCOc1cc(NC(=O)Nc2ccc(-c3ccncc3)c(Cl)c2)ccc1I; 43
3. CCn1c(-c2nonc2N)nc2c(-c3cccc(NC(=O)Nc4cccc(OC)c4)c3)ncc(OCCCN)c21.O=C(O)C(F)(F)F; 1

Value (Inhibition, HepG2) for record Cc1ccc(-c2nnc(-c3ccc(C(=O)NC4CCN(Cc5ccc(C#N)cc5)CC4)cc3)o2)cc1Br = 41

Value (Inhibition, HepG2) for record O=C(O)C(F)(F)F.c1cc(CN2CCCCC2)cc(-c2ccc(-c3nc4ccccc4[nH]3)cc2)c1 = 9

Short answer on HepG2 for Cc1ccc(C)c(CC(=O)N2CCC(n3c(C)nc4ccc(F)cc43)CC2)c1 , Inhibition: 0
